Data origin, for the record: patent US20260263521A1

TARGET_SYSTEM: T1, human CD200R1 expressed on cells (Jurkat-CD200R1, U937-CD200R1, HH cells) (human, UniProt Q8TD46 25-348)
T1 construct: whole, on cells; also called HH (CRL-2105); cell surface-expressed CD200R1
T1 sequence (looked up): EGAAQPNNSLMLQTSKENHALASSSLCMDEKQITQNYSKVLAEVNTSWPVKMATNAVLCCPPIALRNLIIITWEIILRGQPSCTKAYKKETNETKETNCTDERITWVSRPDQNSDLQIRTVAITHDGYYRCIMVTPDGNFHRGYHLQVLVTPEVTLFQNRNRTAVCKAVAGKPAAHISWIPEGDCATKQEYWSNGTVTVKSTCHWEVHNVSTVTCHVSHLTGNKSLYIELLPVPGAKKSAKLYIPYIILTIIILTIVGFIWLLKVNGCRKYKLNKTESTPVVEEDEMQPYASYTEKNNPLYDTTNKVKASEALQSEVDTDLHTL
TEST_DETAILS: flow cytometry, HH cells; drawn table

- BINDER: "P001018 scFv mutant L3-T96R (scFv) scFv: QVQLVQSGAEVKKPGASVKVSCKASGYTFTSYVMHWVRQAPGQGLEWMGYINPYNDDTNYNEKFKGRVTMTRDTSTSTVYMELSSLRSEDTAVYYCAREDYYGSRWGYWGQGTLVTVSSGGGGSGGGGSGGGGSDIVLTQSPASLAVSPGQRATITCRASKSVSTSGYSYMHWYQQKPGQPPKLLIYLASNLESGVPARFSGSGSGTDFTLTINPVEANDTANYYCQHSRELLRFGQGTKVEIK"
  RESULT_UNIT: "%"
  Geo mean (%) at 800 nM: 123
